# System: Strep. pyogenes L49 C203
# Assay method text: MIC broth dilution test, Strep. pyogenes
# Type: cell-based
# Test parameters: Todd-Hewitt broth, 24 h
Below, each of the molecules is paired with its reported M.I.C. value.
Measurement name: M.I.C. (microgram/ml)

INSERT INTO measurements (molecule, unit_annotation, experimental_result) VALUES
  ('CC(=O)N[C@H]1[C@H](OC2c3ccc(c(Cl)c3)Oc3cc4cc(c3O[C@@H]3O[C@H](CO)[C@@H](O)[C@H](O)[C@H]3NC(=O)CCCCCCCC(C)C)Oc3ccc(cc3Cl)CC3NC(=O)C(N)c5ccc(O)c(c5)Oc5cc(O)cc(c5)C(NC3=O)C(=O)NC4C(=O)NC3C(=O)NC2C(=O)NC(C(=O)O)c2cc(O)cc(O)c2-c2cc3ccc2O)O[C@H](CO)[C@@H](O)[C@@H]1O (stereo partly drawn)', 'microgram/ml', 0.063),
  ('CCCCCCCCCC(=O)N[C@H]1[C@H](Oc2c3cc4cc2Oc2ccc(cc2Cl)C(O[C@@H]2O[C@H](CO)[C@@H](O)[C@H](O)[C@H]2NC(C)=O)C2NC(=O)C(NC(=O)C4NC(=O)C4NC(=O)C(Cc5ccc(c(Cl)c5)O3)NC(=O)C(N)c3ccc(O)c(c3)Oc3cc(O)cc4c3)c3ccc(O)c(c3)-c3c(O)cc(O)cc3C(C(=O)O)NC2=O)O[C@H](CO)[C@@H](O)[C@@H]1O (stereo partly drawn)', 'microgram/ml', 0.063),
  ('CC(=O)N[C@H]1[C@H](OC2c3ccc(c(Cl)c3)Oc3cc4cc(c3O[C@@H]3O[C@H](CO)[C@@H](O)[C@H](O)[C@H]3NC(=O)CCCCCCC(C)C)Oc3ccc(cc3Cl)CC3NC(=O)C(N)c5ccc(O)c(c5)Oc5cc(O)cc(c5)C(NC3=O)C(=O)NC4C(=O)NC3C(=O)NC2C(=O)NC(C(=O)O)c2cc(O)cc(O)c2-c2cc3ccc2O)O[C@H](CO)[C@@H](O)[C@@H]1O (stereo partly drawn)', 'microgram/ml', 0.063);
